# System: DeltatarO mutant
# assay_explanation: S. aureus survival, RN4220 and DeltatarO strains – OD600, teichoic acid synthesis inhibitors, primary screen (AID 463173)
# measurement_conditions: S. aureus RN4220 wild type/DeltatarO growth, OD600, 18 h, screened at 18.75 µg/mL (by protocol)
Among all 52,000 compounds or so, about 4,300 (8.3%) were called active. Cut-off read from the data, not from the text of the source: active = survival mostly below about 52% (no sharp cut-off); inactive = mostly above about 56%. Many of the other results were omitted from the sample, so actives are more common in it than they were.
Outcome codes: true for active, false for inactive

{"smiles_record": "CC(C)(C)OC(=O)N1CCC(c2c(C(=O)NCCN3CCC(Cc4ccccc4)CC3)cnn2-c2ccccc2)CC1", "cat": "false"}
{"smiles_record": "CC(C)(C)OC(=O)N1CCC(c2c(C(=O)NCCN3CCC(Cc4ccccc4)CC3)cnn2-c2ccc(F)cc2)CC1", "cat": "true"}
{"smiles_record": "Cc1ccc(-n2ncc(C(=O)NCCN3CCC(Cc4ccccc4)CC3)c2C2CCN(C(=O)OC(C)(C)C)CC2)cc1", "cat": "false"}
{"smiles_record": "CC(C)(C)OC(=O)N1CCC(c2c(C(=O)NCc3ccccc3)cnn2-c2ccc(F)cc2)CC1", "cat": "false"}

----------
# System: DeltatarO mutant
# assay_explanation: S. aureus survival, RN4220 and DeltatarO strains – OD600, teichoic acid synthesis inhibitors, primary screen (AID 463173)
# measurement_conditions: S. aureus RN4220 wild type/DeltatarO growth, OD600, 18 h, stronger effect = lower value, screened at 18.75 µg/mL (by protocol)
Among all 52,000 compounds or so, about 4,300 (8.3%) were called active. The entries come from a sample that favours actives as a whole.
Listed next: entries and their corresponding survival.

{"compound": "O=C(Nc1nnc(S(=O)(=O)N2CCCc3ccccc32)s1)c1ccccc1", "subject_of_test": "DeltatarO mutant", "survival [%]": 27}
{"compound": "CCc1ccc(-n2nc3cc(C)c(NC(=O)c4ccccc4C)cc3n2)cc1", "subject_of_test": "DeltatarO mutant", "survival [%]": 89}
{"compound": "COc1cc(NC(=O)Cn2ccn(-c3cc(C)cc(C)c3)c(=O)c2=O)cc(OC)c1", "subject_of_test": "DeltatarO mutant", "survival [%]": 71}
{"compound": "Cc1ccc(-n2nc3cc(C)c(NC(=O)Cc4ccc(Cl)cc4)cc3n2)cc1", "subject_of_test": "DeltatarO mutant", "survival [%]": 64}
{"compound": "CCCCNC(=O)C(CC)Sc1nnc(-c2ccc(F)cc2)c(-c2ccc(F)cc2)n1 (stereo unspecified)", "subject_of_test": "DeltatarO mutant", "survival [%]": 83}
{"compound": "CCOC(=O)CN1C(=O)c2cccnc2Oc2ccccc21", "subject_of_test": "DeltatarO mutant", "survival [%]": 87}
{"compound": "Cc1cc(=O)n(Cc2ccccc2Cl)c2c1c(C)nn2-c1ccccc1", "subject_of_test": "DeltatarO mutant", "survival [%]": 100}
{"compound": "Cc1nn(-c2ccccc2)c(-n2cccc2)c1C(=O)NCc1ccccc1Cl", "subject_of_test": "DeltatarO mutant", "survival [%]": 2}
{"compound": "CCc1ccccc1NC(=O)CN(Cc1ccccc1)S(=O)(=O)c1ccc2nc(C)sc2c1", "subject_of_test": "DeltatarO mutant", "survival [%]": 102}
{"compound": "CCOc1ccc2c(c1)c(=O)c(C(=O)c1ccc(CC)cc1)cn2CC(=O)Nc1ccccc1C", "subject_of_test": "DeltatarO mutant", "survival [%]": 70}
{"compound": "O=C(Nc1nc2c(F)cccc2s1)c1ccc(S(=O)(=O)N2CCCc3ccccc32)cc1", "subject_of_test": "DeltatarO mutant", "survival [%]": 102}
{"compound": "COc1cccc(/C=C2/SC(=O)N(C)C2=O)c1O", "subject_of_test": "DeltatarO mutant", "survival [%]": 83}
{"compound": "COC(=O)C(C)(C)Sc1nnc2c(n1)[nH]c1c(C)cc(C)cc12", "subject_of_test": "DeltatarO mutant", "survival [%]": 55}
{"compound": "Cc1ccc2ncc(S(=O)(=O)c3ccccc3)c(N3CCCCC3C)c2c1 (stereo unspecified)", "subject_of_test": "DeltatarO mutant", "survival [%]": 7}
{"compound": "O=C(Nc1nnc(S(=O)(=O)N2CCc3ccccc32)s1)c1ccccc1", "subject_of_test": "DeltatarO mutant", "survival [%]": 12}
{"compound": "Cc1nn(-c2ccccc2)c(-n2cccc2)c1C(=O)NCCc1ccc(Cl)cc1", "subject_of_test": "DeltatarO mutant", "survival [%]": 4}
{"compound": "Cc1cc(C)c2nc(NC(=O)c3ccc(S(=O)(=O)N4CCc5ccccc54)cc3)sc2c1", "subject_of_test": "DeltatarO mutant", "survival [%]": 83}
{"compound": "Cc1ccc(CSC2=Nc3ccccc3C3=NC(CCC(=O)NCc4cccs4)C(=O)N23)c(C)c1 (stereo unspecified)", "subject_of_test": "DeltatarO mutant", "survival [%]": 76}
{"compound": "COc1ccc(-n2c(SCC(=O)N3CCc4ccccc43)nc3c([nH]c4ccccc43)c2=O)cc1", "subject_of_test": "DeltatarO mutant", "survival [%]": 92}
{"compound": "COc1ccc(S(=O)(=O)c2cnc3ccc(Cl)cc3c2N2CCCCC2C)cc1 (stereo unspecified)", "subject_of_test": "DeltatarO mutant", "survival [%]": 134}
{"compound": "Cc1ccc(CCNC(=O)c2c(C)nn(-c3ccc(F)cc3)c2-n2cccc2)cc1", "subject_of_test": "DeltatarO mutant", "survival [%]": 67}
